studySystem: RAF proto-oncogene serine/threonine-protein kinase (Homo sapiens) (UniProt P04049)
Sequence (P04049 whole entry): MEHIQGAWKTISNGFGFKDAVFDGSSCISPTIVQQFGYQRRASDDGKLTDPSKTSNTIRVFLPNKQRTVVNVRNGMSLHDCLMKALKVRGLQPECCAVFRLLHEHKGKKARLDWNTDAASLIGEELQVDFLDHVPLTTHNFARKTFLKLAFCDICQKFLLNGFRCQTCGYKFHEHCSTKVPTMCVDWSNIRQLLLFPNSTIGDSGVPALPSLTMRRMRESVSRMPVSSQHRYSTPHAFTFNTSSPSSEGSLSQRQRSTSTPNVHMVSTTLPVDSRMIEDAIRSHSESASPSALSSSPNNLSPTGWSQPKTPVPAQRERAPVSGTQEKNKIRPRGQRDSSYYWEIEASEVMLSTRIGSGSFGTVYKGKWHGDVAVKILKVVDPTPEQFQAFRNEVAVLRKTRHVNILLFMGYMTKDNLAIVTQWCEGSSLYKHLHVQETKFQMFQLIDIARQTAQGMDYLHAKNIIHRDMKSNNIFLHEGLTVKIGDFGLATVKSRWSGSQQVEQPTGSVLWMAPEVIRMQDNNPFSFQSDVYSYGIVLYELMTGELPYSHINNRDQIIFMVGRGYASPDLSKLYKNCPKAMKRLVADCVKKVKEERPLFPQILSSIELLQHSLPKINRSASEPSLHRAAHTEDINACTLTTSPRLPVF
measurementConditions: at 1 µM
Hi, to clarify the labels: Yes covers residual activity from 70% upward, No covers anything below 70%.

compound: C[S+]([O-])c1ccc(-c2nc(-c3ccc(F)cc3)c(-c3ccncc3)[nH]2)cc1 (stereo unspecified)
classAssignment: No
//
compound: COc1ccc2c(c1)/C(=C/c1cnc[nH]1)C(=O)N2
classAssignment: Yes
//
compound: CN[C@@H]1C[C@H]2O[C@@](C)([C@@H]1OC)n1c3ccccc3c3c4c(c5c6ccccc6n2c5c31)C(=O)NC4
classAssignment: Yes
//
compound: O=C1Nc2ccc3ncsc3c2/C1=C/c1c[nH]cn1
classAssignment: No
//
compound: CC(C)[C@H](CO)Nc1nc(Nc2cccc(Cl)c2)c2ncn(C(C)C)c2n1
classAssignment: Yes

* * *

studySystem: Aurora kinase A (Homo sapiens) (UniProt O14965)
Sequence (O14965 whole entry): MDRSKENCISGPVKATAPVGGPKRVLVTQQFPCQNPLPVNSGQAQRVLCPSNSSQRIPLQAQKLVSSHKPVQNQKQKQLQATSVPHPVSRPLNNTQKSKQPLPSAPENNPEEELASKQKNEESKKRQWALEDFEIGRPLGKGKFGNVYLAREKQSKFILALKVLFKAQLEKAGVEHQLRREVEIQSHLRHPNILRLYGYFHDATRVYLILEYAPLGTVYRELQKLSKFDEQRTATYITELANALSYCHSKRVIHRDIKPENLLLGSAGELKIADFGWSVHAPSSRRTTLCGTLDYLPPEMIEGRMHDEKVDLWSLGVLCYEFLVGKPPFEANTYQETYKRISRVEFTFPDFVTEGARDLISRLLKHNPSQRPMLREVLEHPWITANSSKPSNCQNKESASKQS
measurementConditions: at 10 µM

compound: C[S+]([O-])c1ccc(-c2nc(-c3ccc(F)cc3)c(-c3ccncc3)[nH]2)cc1 (stereo not given)
studySystem: Aurora kinase A (Homo sapiens) (UniProt O14965)
residual activity: 118%

compound: CC(C)(C)c1cc(C=C(C#N)C#N)cc(Br)c1O
studySystem: Aurora kinase A (Homo sapiens) (UniProt O14965)
residual activity: 122%

compound: COc1ccc2c(c1)/C(=C/c1cnc[nH]1)C(=O)N2
studySystem: Aurora kinase A (Homo sapiens) (UniProt O14965)
residual activity: 2%

compound: c1cc(-c2cnn3cc(-c4ccc(OCCN5CCCCC5)cc4)cnc23)ccn1
studySystem: Aurora kinase A (Homo sapiens) (UniProt O14965)
residual activity: 48%

compound: CCn1cnc2c(Nc3cccc(Cl)c3)nc(N[C@@H]3CCCC[C@@H]3N)nc21
studySystem: Aurora kinase A (Homo sapiens) (UniProt O14965)
residual activity: 68%

* * *

studySystem: Tyrosine-protein kinase receptor UFO (Homo sapiens) (UniProt P30530)
Sequence (P30530 whole entry): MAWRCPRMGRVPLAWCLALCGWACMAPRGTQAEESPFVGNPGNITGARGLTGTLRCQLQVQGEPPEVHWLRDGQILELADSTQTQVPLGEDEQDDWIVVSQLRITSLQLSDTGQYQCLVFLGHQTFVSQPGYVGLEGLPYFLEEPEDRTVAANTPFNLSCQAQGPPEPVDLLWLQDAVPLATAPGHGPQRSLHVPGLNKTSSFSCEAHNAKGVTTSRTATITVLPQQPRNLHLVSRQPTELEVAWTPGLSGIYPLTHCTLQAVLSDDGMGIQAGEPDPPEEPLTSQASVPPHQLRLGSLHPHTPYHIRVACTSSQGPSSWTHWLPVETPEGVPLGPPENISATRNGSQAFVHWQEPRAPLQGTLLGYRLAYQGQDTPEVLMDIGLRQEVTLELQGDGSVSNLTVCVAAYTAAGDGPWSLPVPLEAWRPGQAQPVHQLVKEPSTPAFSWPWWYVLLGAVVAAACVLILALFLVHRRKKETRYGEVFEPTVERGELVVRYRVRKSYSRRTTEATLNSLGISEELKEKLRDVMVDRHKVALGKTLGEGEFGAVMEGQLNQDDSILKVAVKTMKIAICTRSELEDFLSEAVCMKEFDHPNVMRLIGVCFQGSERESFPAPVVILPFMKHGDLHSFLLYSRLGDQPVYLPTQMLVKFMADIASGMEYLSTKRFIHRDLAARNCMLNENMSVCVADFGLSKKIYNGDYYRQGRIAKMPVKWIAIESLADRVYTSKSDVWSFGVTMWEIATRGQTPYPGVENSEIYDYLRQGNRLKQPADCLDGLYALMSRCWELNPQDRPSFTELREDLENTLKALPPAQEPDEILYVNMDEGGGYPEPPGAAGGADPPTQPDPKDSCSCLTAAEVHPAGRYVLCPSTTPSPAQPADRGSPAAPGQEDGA
measurementConditions: at 10 µM

molecule: CC(C)[C@H](CO)Nc1nc(Nc2cccc(Cl)c2)c2ncn(C(C)C)c2n1
studySystem: Tyrosine-protein kinase receptor UFO (Homo sapiens) (UniProt P30530)
readoutUnits: %
residual activity: 31

molecule: COc1ccc2c(c[n+](C)c3c4cc5c(cc4ccc23)OCO5)c1OC
studySystem: Tyrosine-protein kinase receptor UFO (Homo sapiens) (UniProt P30530)
readoutUnits: %
residual activity: 44

molecule: O=c1[nH]c2ccccc2n1C1CCN(Cc2ccc(-c3nc4cc5[nH]cnc5cc4nc3-c3ccccc3)cc2)CC1
studySystem: Tyrosine-protein kinase receptor UFO (Homo sapiens) (UniProt P30530)
readoutUnits: %
residual activity: 64

molecule: COC(=O)[C@@]1(O)C[C@H]2O[C@]1(C)n1c3ccccc3c3c4c(c5c6ccccc6n2c5c31)C(=O)NC4
studySystem: Tyrosine-protein kinase receptor UFO (Homo sapiens) (UniProt P30530)
readoutUnits: %
residual activity: -3

molecule: COc1cc2ncnc(Nc3ccc(OCc4ccccc4)cc3)c2cc1OC
studySystem: Tyrosine-protein kinase receptor UFO (Homo sapiens) (UniProt P30530)
readoutUnits: %
residual activity: 48

molecule: C[S+]([O-])c1ccc(-c2nc(-c3ccc(F)cc3)c(-c3ccncc3)[nH]2)cc1 (stereo unspecified)
studySystem: Tyrosine-protein kinase receptor UFO (Homo sapiens) (UniProt P30530)
readoutUnits: %
residual activity: 119

molecule: O=C1c2ccccc2-c2nc3nnnn3nc21
studySystem: Tyrosine-protein kinase receptor UFO (Homo sapiens) (UniProt P30530)
readoutUnits: %
residual activity: 42

molecule: O=C1Nc2ccc3ncsc3c2/C1=C/c1c[nH]cn1
studySystem: Tyrosine-protein kinase receptor UFO (Homo sapiens) (UniProt P30530)
readoutUnits: %
residual activity: 8

molecule: N/C(=N\[N+](=O)[O-])N/N=C\c1ccc(-c2cccc([N+](=O)[O-])c2)o1
studySystem: Tyrosine-protein kinase receptor UFO (Homo sapiens) (UniProt P30530)
readoutUnits: %
residual activity: 93

molecule: O=C1NC(=O)c2c1c1c3ccccc3n3c1c1c2c2ccccc2n1C1CCC3O1
studySystem: Tyrosine-protein kinase receptor UFO (Homo sapiens) (UniProt P30530)
readoutUnits: %
residual activity: 87

molecule: O=[N+]([O-])/C=C/c1ccc2c(c1)OCO2
studySystem: Tyrosine-protein kinase receptor UFO (Homo sapiens) (UniProt P30530)
readoutUnits: %
residual activity: 81

Measured values drawn from ChEMBL document CHEMBL2218924 for this set.
